Assay: qHTS Assay for Lipid Storage Modulators in Drosophila S3 Cells
Conditions: BODIPY lipid droplet fluorescence, 18-24 h, cells fed with added oleic acid; series mostly up to 46.1 µM
The campaign covered roughly 320,000 compounds. About 2,100 (0.66%) were called active. Another 53% or so got no clear call; they are omitted. Calls come from the whole dose curve; as a rule, active = well fitted inhibition curve with a large enough effect in the signal ratio, with a control signal flat (not every such curve was filed as active); inconclusive = small, poorly fitted or top-dose-only effect, or effect the other way, or a change in a side signal; inactive = flat fitted curve, though single readings scatter; the % refers to the signal ratio. Many of the other results were omitted from the sample, so actives are more common in it than they were.
Write down one outcome, taken from active, inactive

> print(dat)
                                   molecule  class.name
1  C=CCn1c(C)c(C=C2C(=O)NC(=O)NC2=O)c2ccccc21    inactive

-- ask Hey, what did the test say about Cc1ccc2c(c1)=C/C(=C\c1c(O)[nH]c(=S)[nH]c1=O)C(=O)N=2 ?
-- reply inactive

-- ask Tell me the assay call for C(CCc1nn[nH]n1)CCc1nn[nH]n1 please.
-- reply inactive

-- ask Record lookup: outcome of this test for Cn1c(O)c(/C=C2\C=c3ccccc3=NC2=O)c(=O)n(C)c1=O ?
-- reply inactive

----------
Experiment: qHTS Assay for Lipid Storage Modulators in Drosophila S3 Cells
Details: BODIPY lipid droplet fluorescence, 18-24 h, cells fed with added oleic acid; series mostly up to 46.1 µM
Excerpt: NIH Molecular Libraries Probe Production Centers Network [MLPCN] NIH Chemical Genomics Center [NCGC] […] Triacsin C (Sigma-Aldrich T-4540), an inhibitor of long-chain fatty acyl CoA synthetase that blocks synthesis of triglycerides, was used as a positive control for lipid under-storage. […] Fluorescence was detected by excitation of the fluorophores with a 488-nm laser on an Acumen Explorer (TTP Lab Tech). […] Cells were detected using channel 3 (575-640 nm) with 5-um width and 100-um depth filters. […]
The campaign covered roughly 320,000 compounds. About 2,100 (0.66%) were called active. Inconclusive results (about 53%) are left out. The call rests on the fitted dose curve; in most records, active means well fitted inhibition curve with a large enough effect in the signal ratio, with a control signal flat (not every such curve was filed as active); inconclusive means small, poorly fitted or top-dose-only effect, or effect the other way, or a change in a side signal; inactive means flat fitted curve, though single readings scatter; the % refers to the signal ratio. Many of the other results were omitted from the sample, so actives are more common in it than they were.
Outcomes you can answer with include only these: active, inactive

> print(dat)
                                  compound  class.name
1  CCOP(=S)(NN(Cc1ccccc1)C(=O)c1ccccc1)OCC      active

-- ask Can you look up the reported call for CC(c1ccccc1)(c1ccccc1)c1ccncc1 for me?
-- reply inactive

-- ask How did this test come out for O=C(Nc1cccc(Cl)c1)N1C[C@H]2C[C@@H](C1)c1cccc(=O)n1C2 ?
-- reply inactive

-- ask Assay outcome for Cn1c(O)c(C=NC2CCN(Cc3ccccc3)CC2)c(=O)n(C)c1=O : what was it?
-- reply inactive

-- ask State the result this test recorded for Cc1ccc(N)c(C(=O)c2ccccc2)c1 .
-- reply inactive

-- ask Assay outcome for Cc1cc(OCC(=O)NCC(O)c2ccccc2)c2c3c(c(=O)oc2c1)CCC3 (stereo unspecified) : what was it?
-- reply active

-- ask Would you mind telling me which call this test gave COc1ccc(N2C(=O)NC(=O)/C(=C\c3ccccc3[N+](=O)[O-])C2=O)cc1 ?
-- reply inactive

-- ask # outcome recorded in this test, key = CCOP(=O)(OCC)C(Cc1ccccc1)NC(C)=O (stereo unspecified)
-- reply inactive

-- ask Per the records of this test, what outcome belongs to Cc1ccc(NP(=O)(Oc2ccccc2F)Oc2ccccc2F)cc1C ?
-- reply active

-- ask Recorded call for COC(=O)C1=C(c2ccc(-c3ccccc3)c(F)c2)C[C@@H]2CC[C@H]1N2C(=O)NCCOc1ccccc1 ?
-- reply inactive

-- ask What classification did O=C(c1ccc2c(=O)n(Cc3ccc4c(c3)OCO4)c(=S)[nH]c2c1)N1CCC2(CC1)OCCO2 end up with in this test?
-- reply inactive

-- ask Identify the outcome logged in this assay for the compound shown: O=C(Nc1ccc(F)cc1)N1CC2CC(C1)c1cccc(=O)n1C2 (stereo unspecified)
-- reply inactive

-- ask Hey, what did the test say about COC(=O)C1=C(c2ccc(-c3ccccc3)c(F)c2)C[C@@H]2CC[C@H]1N2C(=O)NCC1CC1 ?
-- reply inactive

-- ask State the result this test recorded for O=c1c2ccccc2ncn1-c1ccc([N+](=O)[O-])c(C(F)(F)F)c1 .
-- reply inactive

-- ask Please indicate how the test categorized CC(=O)c1cc(C(C)=O)c(C)[n+](C)c1C .
-- reply inactive
